Would you kindly list pIC50 for each of these compounds?
Molecular target: human TLR9 (Homo sapiens)
Construct: host or cells: HEK-Blue cells (HEK293-derived reporter line)
Sequence (Q9NR96 26-1032): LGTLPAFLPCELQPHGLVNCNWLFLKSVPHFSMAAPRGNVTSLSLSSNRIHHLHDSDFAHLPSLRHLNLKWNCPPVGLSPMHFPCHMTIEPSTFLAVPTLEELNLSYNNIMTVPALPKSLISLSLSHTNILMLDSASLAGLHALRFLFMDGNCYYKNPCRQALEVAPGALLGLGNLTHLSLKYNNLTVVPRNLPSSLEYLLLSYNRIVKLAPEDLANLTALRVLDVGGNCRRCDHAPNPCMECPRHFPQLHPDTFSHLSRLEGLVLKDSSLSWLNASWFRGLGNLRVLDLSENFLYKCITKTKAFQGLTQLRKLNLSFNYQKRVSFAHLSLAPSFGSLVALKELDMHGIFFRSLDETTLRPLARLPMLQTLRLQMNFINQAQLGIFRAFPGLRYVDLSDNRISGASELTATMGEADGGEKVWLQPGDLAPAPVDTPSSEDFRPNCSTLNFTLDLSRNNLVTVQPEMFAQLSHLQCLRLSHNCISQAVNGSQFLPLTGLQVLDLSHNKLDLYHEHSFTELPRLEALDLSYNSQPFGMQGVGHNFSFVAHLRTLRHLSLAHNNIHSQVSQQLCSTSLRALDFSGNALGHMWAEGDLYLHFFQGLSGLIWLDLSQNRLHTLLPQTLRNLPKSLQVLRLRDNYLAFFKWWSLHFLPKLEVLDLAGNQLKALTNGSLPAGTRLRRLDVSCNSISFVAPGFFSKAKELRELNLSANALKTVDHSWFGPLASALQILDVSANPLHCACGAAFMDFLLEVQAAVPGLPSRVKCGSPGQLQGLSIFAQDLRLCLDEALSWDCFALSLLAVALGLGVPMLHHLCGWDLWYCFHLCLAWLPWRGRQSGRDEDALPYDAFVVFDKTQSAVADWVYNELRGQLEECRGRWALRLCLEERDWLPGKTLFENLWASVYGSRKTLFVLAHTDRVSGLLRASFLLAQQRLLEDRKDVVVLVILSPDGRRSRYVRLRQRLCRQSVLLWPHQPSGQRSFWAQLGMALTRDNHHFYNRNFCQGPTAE
Assay: TLR9 inhibition reporter assay (HEK-Blue cells, secreted embryonic alkaline phosphatase reporter)
Type: cell-based
Conditions: HEK-Blue cells overexpressing human TLR9, stimulated with ODN2006 5 nM; read-out: TLR 9 IC50
Numbers only, as −log10 of the molar value.

Cc1ccc(CN2CCC(c3cc(C)c4nc(-c5ccc(S(C)(=O)=O)cc5)n(C)c4c3)CC2)cn1 [Example 419]; 5.67

Batch: pIC50 for all items listed.
1. Cc1cc(C2CCN(C3CC4CCC(C3)N4CC3CC3)CC2)cc2[nH]c(-c3ccc(S(C)(=O)=O)c(F)c3)nc12 (stereo not shown) [Example 351]
2. Cc1cc(C2CCN(C3CC4CCC(C3)N4C(C)C)CC2)cc2c1nc(-c1ccc(S(C)(=O)=O)c(F)c1)n2C (stereo not shown) [Example 344]
3. Cc1cc(-c2ccc(N3CCN(CC4CC4)CC3)cc2)cc2c1nc(-c1ccc(S(C)(=O)=O)cc1)n2C [Example 171]
4. Cc1cc(C2CCN(C3CCN(CC(C)C)CC3)CC2)cc2c1nc(-c1ccc(S(C)(=O)=O)c(F)c1)n2C [Example 343]
5. Cc1cc(C2CCN(C3CC4CCC(C3)N4CC(C)C)CC2)cc2c1nc(-c1ccc(S(C)(=O)=O)c(F)c1)n2C (stereo not shown) [Example 342]

[7.32, 7.91, 6.19, 6.81, 6.91]

Enter reported pIC50 observed with human TLR9 (Homo sapiens) for CS(=O)(=O)c1ccc(-c2nc3c(F)cc(C4CCN(C5CC6CCC(C5)N6C5CCOCC5)CC4)cc3n2C2CC2)cc1 (stereo not shown) [Example 329]
7.55

###

Would you kindly list pIC50 for each of these molecules?
Target: human TLR7 (Homo sapiens, UniProt Q9NYK1)
Sequence (Q9NYK1 27-1049): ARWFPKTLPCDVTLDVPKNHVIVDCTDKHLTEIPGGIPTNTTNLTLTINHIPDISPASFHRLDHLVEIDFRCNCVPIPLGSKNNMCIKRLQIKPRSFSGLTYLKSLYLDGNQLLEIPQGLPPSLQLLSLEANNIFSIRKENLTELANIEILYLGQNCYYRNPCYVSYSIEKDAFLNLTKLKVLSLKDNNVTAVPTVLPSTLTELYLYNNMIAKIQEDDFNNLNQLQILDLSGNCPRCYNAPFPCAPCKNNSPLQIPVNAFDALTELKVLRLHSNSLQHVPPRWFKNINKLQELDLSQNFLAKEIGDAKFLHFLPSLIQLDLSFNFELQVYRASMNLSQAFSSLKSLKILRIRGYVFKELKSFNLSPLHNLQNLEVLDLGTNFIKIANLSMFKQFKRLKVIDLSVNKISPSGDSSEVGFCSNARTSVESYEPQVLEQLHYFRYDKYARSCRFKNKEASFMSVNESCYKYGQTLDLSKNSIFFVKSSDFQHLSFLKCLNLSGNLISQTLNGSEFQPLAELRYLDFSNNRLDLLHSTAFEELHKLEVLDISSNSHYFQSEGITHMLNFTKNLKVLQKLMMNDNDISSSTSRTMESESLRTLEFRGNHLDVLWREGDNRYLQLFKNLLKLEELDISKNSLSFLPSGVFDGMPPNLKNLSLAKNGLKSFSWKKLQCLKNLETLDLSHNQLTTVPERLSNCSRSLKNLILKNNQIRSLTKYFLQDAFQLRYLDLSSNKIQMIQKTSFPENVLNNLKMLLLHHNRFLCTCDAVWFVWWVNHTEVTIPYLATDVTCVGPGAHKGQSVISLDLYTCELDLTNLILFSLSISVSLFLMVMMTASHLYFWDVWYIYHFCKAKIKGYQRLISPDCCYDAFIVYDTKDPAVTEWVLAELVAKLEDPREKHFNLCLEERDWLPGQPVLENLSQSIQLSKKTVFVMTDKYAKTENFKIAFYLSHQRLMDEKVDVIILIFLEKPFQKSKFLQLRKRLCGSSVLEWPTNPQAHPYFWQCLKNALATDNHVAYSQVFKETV
Assay: TLR7 inhibition reporter assay (HEK-Blue cells, secreted embryonic alkaline phosphatase reporter)
Conditions: HEK-Blue cells overexpressing human TLR7, stimulated with gardiquimod 7.5 μM; read-out: TLR 7 IC50
Numbers only, as −log10 of the molar value.

Cn1c(-c2ccc(S(C)(=O)=O)cc2)nc2c(F)cc(C3CCN(C4CC5CCC(C4)N5C4CCC4)CC3)cc21 (single isomer, unassigned) [Example 293]; 5.09
Cc1cc(C2CCN(C3CCCN(C4CCOCC4)CC3)CC2)cc2c1nc(-c1ccc(S(C)(=O)=O)cc1)n2C (single isomer, unassigned) [Example 306]; 5.02
Cc1cc(C2CCN(C3CCN(CC(C)C)CC3)CC2)cc2[nH]c(-c3ccc4nccn4c3)nc12; 5.52

Batch: pIC50 for all items listed.
1. COCCN1C2CCC1CC(N1CCC(c3ccc4nc(-c5ccc(S(C)(=O)=O)cc5)n(C)c4c3F)CC1)C2 (single isomer, unassigned) [Example 277]
2. Cn1c(-c2ccc(S(C)(=O)=O)cc2)nc2ccc(C3CCN(C4CCCN(C5COC5)CC4)CC3)c(F)c21 (stereo not drawn) [Example 315]

1. 6.00
2. 5.21

###

Would you kindly list pIC50 for each of these compounds?
Target: human TLR8 (Homo sapiens)
Sequence (Q9NR97 27-1041): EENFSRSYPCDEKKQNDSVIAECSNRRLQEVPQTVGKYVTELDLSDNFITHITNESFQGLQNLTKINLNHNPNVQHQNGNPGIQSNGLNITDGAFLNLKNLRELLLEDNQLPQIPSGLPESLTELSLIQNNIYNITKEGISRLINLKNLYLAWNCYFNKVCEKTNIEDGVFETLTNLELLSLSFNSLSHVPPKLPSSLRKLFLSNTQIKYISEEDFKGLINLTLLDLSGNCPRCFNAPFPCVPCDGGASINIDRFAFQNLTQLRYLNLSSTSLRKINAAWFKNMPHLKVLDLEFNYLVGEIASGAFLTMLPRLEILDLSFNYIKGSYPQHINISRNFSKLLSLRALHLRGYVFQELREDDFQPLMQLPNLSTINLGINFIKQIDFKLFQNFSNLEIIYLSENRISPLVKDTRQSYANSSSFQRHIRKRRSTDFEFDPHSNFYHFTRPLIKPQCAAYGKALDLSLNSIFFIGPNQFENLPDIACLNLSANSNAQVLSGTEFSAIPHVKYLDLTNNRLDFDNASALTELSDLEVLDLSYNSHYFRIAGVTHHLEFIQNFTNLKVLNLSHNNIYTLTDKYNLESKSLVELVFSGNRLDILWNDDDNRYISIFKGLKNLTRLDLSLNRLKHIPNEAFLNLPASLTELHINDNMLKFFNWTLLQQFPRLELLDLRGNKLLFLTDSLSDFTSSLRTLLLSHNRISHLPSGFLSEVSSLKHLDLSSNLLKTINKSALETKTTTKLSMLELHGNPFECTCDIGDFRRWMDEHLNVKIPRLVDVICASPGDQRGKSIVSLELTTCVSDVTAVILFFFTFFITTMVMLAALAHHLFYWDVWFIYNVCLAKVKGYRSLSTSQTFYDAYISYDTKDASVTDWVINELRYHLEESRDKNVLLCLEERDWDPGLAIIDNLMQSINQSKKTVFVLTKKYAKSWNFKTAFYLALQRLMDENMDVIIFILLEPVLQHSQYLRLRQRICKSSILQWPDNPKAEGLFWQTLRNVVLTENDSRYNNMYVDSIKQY
Test: TLR8 inhibition reporter assay (HEK-Blue cells, secreted embryonic alkaline phosphatase reporter)
Conditions: HEK-Blue cells overexpressing human TLR8, stimulated with R848 15.9 μM; read-out: TLR 8 IC50
pIC50: −log10 of the molar value.

# count of solved cases: 5
Cc1cc(C2CCN(C3CC4CCC(C3)N4C3CCC3)CC2)cc2c1nc(-c1ccc(S(C)(=O)=O)cc1)n2C (single isomer, unassigned) [Example 152]; < 4.60
Cc1cc(C2CCN(C3CCN(CC(C)C)CC3)CC2)cc2[nH]c(-c3ccc(S(C)(=O)=O)cc3)nc12 [Example 58, tris(2,2,2-trifluoroacetate)]; < 4.30
CC(C)N1CCC(N2CCC(c3ccc4nc(-c5ccc(S(C)(=O)=O)cc5)n(C)c4c3F)CC2)CC1 [Example 102]; < 4.30
CS(=O)(=O)c1ccc(-c2nc3ccc(C4CCN(C5CCN(C6CCOCC6)CC5)CC4)c(F)c3[nH]2)cc1 [Example 182]; < 4.30
Cn1c(-c2ccc(S(C)(=O)=O)cc2)nc2cc(C3CCN(C4CC5CCC(C4)N5C4CCOCC4)CC3)c(F)cc21 (single isomer, unassigned) [Example 255]; < 4.30

Continue with the next compound.
Enter reported pIC50 observed with human TLR8 (Homo sapiens) for Cn1c(-c2ccc(S(C)(=O)=O)cc2)nc2cc(C3CCN(C4CCN(CC5CC5)CC4)CC3)cc(F)c21 [Example 203]
< 4.30
